molecular target: α-Synuclein, P37840; experiment: other fluorescence titration; tyrosine fluorescence of Aβ or α-synuclein titrated with SERF1a at different concentrations; quenching fitted; conditions: remark: other sources report otherwise
readout-label: Kd (µM)
Give bare numbers, in µM.

Any idea what Kd was measured for Human SERF1a (small EDRK-rich factor 1a), short form (natural protein, UniProt O75920-2 1-62, looked up, Small EDRK-rich factor 1a, human, short form of 62 residues (the long form has 110); full-length cDNA amplified by PCR from GenBank BC021174; 15N-labelled (M9 minimal medium) for the NMR titration; also called rSERF1a; recombinant SERF1a; source: E. coli BL21(DE3), purified (Ni-Sepharose, thrombin cleavage, Mono-S); not shown: His-tag, N-terminal, cleaved) MARGNQRELARQKNMKKTQEISKGKRKEDSLTASQRKQRDSEIMQEKQKAANEKKSMQTREK ?
20.8
